Measured on: SALL4 ZFC4 WT (HT-SELEX) (Mus musculus, UniProt Q8BX22 870-940)
Sequence: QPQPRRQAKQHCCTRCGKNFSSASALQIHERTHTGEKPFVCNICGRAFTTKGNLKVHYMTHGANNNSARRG
Assay name: HT-SELEX; high values mean tight binding
Assay context: protein: recombinant; vector His6-GST; dsDNA, one strand shown
Assay endpoint: binding signal (fold-change vs cycle 0)
Give a bare numeral; the unit fold-change vs cycle 0 is implied.

Some entries whose results are on file:
CCAGAA
0.726
ATAGTG
1.28

Form field binding signal for item TATCCA on SALL4 ZFC4 WT (HT-SELEX) (Mus musculus, UniProt Q8BX22 870-940): 1.41

Form field binding signal for item ATCGAG on SALL4 ZFC4 WT (HT-SELEX) (Mus musculus, UniProt Q8BX22 870-940): 0.776

Form field binding signal for item CTGACC on SALL4 ZFC4 WT (HT-SELEX) (Mus musculus, UniProt Q8BX22 870-940): 0.426

Form field binding signal for item CTATGA on SALL4 ZFC4 WT (HT-SELEX) (Mus musculus, UniProt Q8BX22 870-940): 1.49

Form field binding signal for item AAACCC on SALL4 ZFC4 WT (HT-SELEX) (Mus musculus, UniProt Q8BX22 870-940): 0.691

Form field binding signal for item ATAAGA on SALL4 ZFC4 WT (HT-SELEX) (Mus musculus, UniProt Q8BX22 870-940): 2.45

Form field binding signal for item AAATTT on SALL4 ZFC4 WT (HT-SELEX) (Mus musculus, UniProt Q8BX22 870-940): 2.66

Form field binding signal for item ATATTG on SALL4 ZFC4 WT (HT-SELEX) (Mus musculus, UniProt Q8BX22 870-940): 2.19

Form field binding signal for item AACGTG on SALL4 ZFC4 WT (HT-SELEX) (Mus musculus, UniProt Q8BX22 870-940): 0.697

Form field binding signal for item AATTAG on SALL4 ZFC4 WT (HT-SELEX) (Mus musculus, UniProt Q8BX22 870-940): 1.92

Form field binding signal for item CGGAAA on SALL4 ZFC4 WT (HT-SELEX) (Mus musculus, UniProt Q8BX22 870-940): 0.548

Form field binding signal for item CAGTTA on SALL4 ZFC4 WT (HT-SELEX) (Mus musculus, UniProt Q8BX22 870-940): 1.43

Form field binding signal for item GATCGA on SALL4 ZFC4 WT (HT-SELEX) (Mus musculus, UniProt Q8BX22 870-940): 0.664

====

Each entry below carries its recorded log10 binding signal.
Measured on: SALL4 ZFC4 G921D (HT-SELEX) (Mus musculus, UniProt Q8BX22 870-940, G921D)
Sequence: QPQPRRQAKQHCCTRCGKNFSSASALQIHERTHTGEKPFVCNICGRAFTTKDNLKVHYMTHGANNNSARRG
Assay name: HT-SELEX; high values mean tight binding
Assay context: protein: recombinant; vector His6-GST; dsDNA, one strand shown
Hello, just confirming the data are log10 of binding signal with units of fold-change vs cycle 0.

Some entries whose results are on file:
ATTAGA
0.27
AGGAAT
0.17
CATACC
-0.03
CGGGGC
-0.79
GGTTGA
-0.03

Briefly, log10 binding signal measured for AACGTG : -0.06

Briefly, log10 binding signal measured for AAGAAG : 0.16

Briefly, log10 binding signal measured for ATGTAA : 0.26

Briefly, log10 binding signal measured for CTCCCA : -0.18
